Test system: Plasmodium falciparum
Test: Calibr Malaria Delayed Death Assay SOP
Assay type: functional, organism-based
Set-up: scale not given: in the data most compounds retested in dose-response had high values
Conditions: concentration 4.99e-06 (unit not given; other assays of the set use mol/L)
Hit rate of the full screen: of about 38,000 compounds, about 1,200 (3.2%) showed an effect of 50% or more. The median lay at about -58%. This is one part of a sample in which strong results are shown more often than they occur.

compound: COc1ncc(C2(O)CCN(Cc3cc(F)ccc3F)CC2)c(OC)n1.Cl
Percent Effect: -42.34%

compound: O=C(NC1CCc2cc(Cl)ccc21)C1CCN(C(=O)C2CC2)CC1 (configuration not stated)
Percent Effect: -26.17%

compound: COc1ccc(OC)c(CN2CCC(c3cc(O)nc(C)n3)C2)c1 (configuration not stated)
Percent Effect: -6.514%

compound: CC(C)c1cc(Br)ccc1NC(=O)NC(C)(CO)CO
Percent Effect: -72.51%

compound: COc1ncc(C2(O)CCN(Cc3cccc(F)c3F)CC2)c(OC)n1.Cl
Percent Effect: -65.3%

compound: Cc1cc(=O)n2nc(Oc3ccc(C#N)cc3Cl)sc2n1
Percent Effect: 19.91%

compound: CC(=O)NCC(=O)N1CCCC(C(=O)c2ccc(C(C)(C)C)cc2)C1 (configuration not stated)
Percent Effect: -127.3%

compound: COC(=O)NCC(=O)NCC1(c2c(F)cccc2F)CCCC1
Percent Effect: 68.39%

compound: CS(=O)(=O)NCc1nnc2n1CCN(Cc1cccnc1)C2
Percent Effect: -124.8%

compound: Cc1cc(=O)n2nc(Oc3cccc(I)c3)sc2n1
Percent Effect: 55.78%

compound: Fc1cccnc1N1CCC(NCc2cccc3cn[nH]c23)C1 (configuration not stated)
Percent Effect: -62.75%

compound: Cc1cc(C)nc(N(C)CCN(C)C2CCCC2)n1
Percent Effect: 27.63%
